# SYSTEM UNDER TEST: CKα1 (Homo sapiens)
# Construct: an N-terminally His-tagged truncated form of CKα1 (Δ75–457) was cloned into a pET-28a vector; His tag (N); made in house; host or cells: E. coli BL21 (DE3) Star
# Sequence (P35790 75-457): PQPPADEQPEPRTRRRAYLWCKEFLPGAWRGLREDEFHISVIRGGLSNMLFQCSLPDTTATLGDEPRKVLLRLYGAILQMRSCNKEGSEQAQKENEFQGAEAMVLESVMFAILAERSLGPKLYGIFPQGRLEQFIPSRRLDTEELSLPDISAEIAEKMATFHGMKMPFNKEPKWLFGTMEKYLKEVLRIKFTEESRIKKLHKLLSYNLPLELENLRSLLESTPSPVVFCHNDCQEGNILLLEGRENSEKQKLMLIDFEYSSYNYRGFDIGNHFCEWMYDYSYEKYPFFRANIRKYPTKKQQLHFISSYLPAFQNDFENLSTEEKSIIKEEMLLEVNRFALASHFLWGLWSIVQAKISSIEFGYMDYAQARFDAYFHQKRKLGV
# ASSAY OVERVIEW: Choline kinase assay ([methyl-14C]choline into PCho, purified enzyme)
# Assay type: biochemical
# RUN PARAMETERS: concentration required to inhibit CKα1 enzyme by 50%
pIC50: −log10 of the molar value.
Outcome: class 1 for pIC50 of at least 6; class 0 for anything lower.

MOL	CLASS NAME
[Br-].[Br-].c1cc2c(N3CCCCC3)nc[n+](Cc3ccc(-c4ccc(C[n+]5cnc(N6CCCCC6)c6ccsc65)cc4)cc3)c2s1	class 0

[Q] Does `[Br-].[Br-].c1cc2c(s1)c(N1CCCCCC1)cc[n+]2Cc1ccc(-c2ccc(C[n+]3ccc(N4CCCCCC4)c4sccc43)cc2)cc1` have a reported pIC50 of at least 6?
[A] class 0

[Q] Does `[Br-].[Br-].c1cc2c(s1)c(N1CCCCC1)nc[n+]2Cc1ccc(-c2ccc(C[n+]3cnc(N4CCCCC4)c4sccc43)cc2)cc1` have a reported pIC50 of at least 6?
[A] class 0

[Q] Does `[Br-].[Br-].c1cc2c(N3CCCCCC3)nc[n+](Cc3ccc(CCCCc4ccc(C[n+]5cnc(N6CCCCCC6)c6ccsc65)cc4)cc3)c2s1` have a reported pIC50 of at least 6?
[A] class 1

The reported numbers originate from paper PMC9032693.
